- procedureDetails: qHTS RealTime-Glo MT Cell Viability Assay in HEK293 cells - 40 hour (AID 1224874); further: potency means the concentration at half of the fitted maximal effect; nearly all actives have a fitted effect of over 50% in size
- measurementParameters: RealTime-Glo luminescence
Inconclusive results are not listed. Active and inactive are the calls of the source. The call rests on the fitted dose curve; in most records, active means well fitted cell-killing curve with a large enough effect in the repeat runs; inconclusive means weak or mixed curves, or effect the other way; inactive means flat fitted curve, though single readings scatter.
valueKind: Potency

| compound | result |
| --- | --- |
| O=C(c1ccccc1)C(Cl)Cl | 38.9 µM (active) |
| CC(c1ccccc1)(c1ccc(O)cc1)c1ccc(O)cc1 | 43.6 µM (active) |
| CO/C=C(/C(=O)OC)c1ccccc1Oc1cc(Oc2ccccc2C#N)ncn1 | 33.8 µM (active) |
| Cc1cc(C(C)(C)c2ccc(O)c(C)c2)ccc1O | 20.8 µM (active) |
| C[C@]12CC[C@@H](O)C[C@@H]1CC[C@@H]1[C@@H]2CC[C@]2(C)C(=O)CC[C@@H]12 | 24.5 µM (active) |
| CC1COC(Cn2cncn2)(c2ccc(Oc3ccc(Cl)cc3)cc2Cl)O1 (stereo not given) | 17.4 µM (active) |
| O=S(=O)(C(Cl)(Cl)Cl)C(Cl)(Cl)Cl | 8.71 µM (active) |
| Cc1cc(C)c(C(=O)P(=O)(c2ccccc2)c2ccccc2)c(C)c1 | 38.9 µM (active) |
| c1ccc2c(c1)Sc1ccccc1N2CC1CN2CCC1CC2 (stereo not given) | 23.9 µM (active) |
| Nc1ccc([N+](=O)[O-])cc1 | 38.9 µM (active) |

###

- testedSystem: Acetylcholinesterase (Homo sapiens) (UniProt P22303)
- Sequence (P22303 whole entry, looked up): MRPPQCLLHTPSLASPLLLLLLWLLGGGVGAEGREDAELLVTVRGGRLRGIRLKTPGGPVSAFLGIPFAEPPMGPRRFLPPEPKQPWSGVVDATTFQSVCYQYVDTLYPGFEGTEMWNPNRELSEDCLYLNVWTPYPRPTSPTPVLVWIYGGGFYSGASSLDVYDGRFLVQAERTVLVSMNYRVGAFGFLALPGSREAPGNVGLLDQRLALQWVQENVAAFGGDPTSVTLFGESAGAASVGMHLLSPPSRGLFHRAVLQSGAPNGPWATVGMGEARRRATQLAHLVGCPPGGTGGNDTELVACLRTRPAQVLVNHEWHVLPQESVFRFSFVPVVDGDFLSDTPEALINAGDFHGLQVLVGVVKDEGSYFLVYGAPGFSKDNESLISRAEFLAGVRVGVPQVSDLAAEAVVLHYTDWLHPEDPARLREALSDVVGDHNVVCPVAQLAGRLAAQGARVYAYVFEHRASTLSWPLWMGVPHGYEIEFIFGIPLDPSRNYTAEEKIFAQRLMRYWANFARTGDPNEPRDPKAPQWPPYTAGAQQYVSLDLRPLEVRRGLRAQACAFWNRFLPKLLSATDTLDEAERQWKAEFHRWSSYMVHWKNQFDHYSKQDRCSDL
- procedureDetails: Acetylcholinesterase (AChE) small molecule antagonists: enzyme-based qHTS assay (AID 1347397); further: nearly all actives have a fitted effect of over 55% in size
- measurementParameters: AChE enzyme activity inhibition; series mostly up to 115 µM
Calls of active or inactive are those of the source. Calls follow the shape of the full dose curve.
Outcomes: Y = active, N = inactive

| molecule | labelValue |
| --- | --- |
| Cc1nc(C2CCCCC2)c(-c2ccc(S(N)(=O)=O)c(F)c2)o1 | N |
| CCOC(C)=O | N |
| NC(=O)c1cccc([N+](=O)[O-])c1 | N |
| OCCN(CCO)CCN(CCO)CCO | N |
| CCN(CC)CCNC(=O)c1cc(S(C)(=O)=O)ccc1OC | N |
| CC(CN(CCN(CC(C)OCCO)CC(C)OCCO)CC(C)OCCO)OCCO (stereo not drawn) | N |
| Cc1ccc2n[nH]nc2c1 | N |
| CCO[Si](CCCCl)(OCC)OCC | N |
| CC(C[N+](C)(C)C)OC(N)=O (stereo not drawn) | N |
| CCCCC(CC)COC(=O)CCCCC(=O)OCC(CC)CCCC (stereo not drawn) | N |
| O=C(O)[C@@H](O)[C@H](O)[C@H](O)[C@@H](O)C(=O)O | N |
| Brc1cc(Oc2cc(Br)c(Br)c(Br)c2Br)c(Br)c(Br)c1Br | N |
| Nc1ncn([C@H]2C[C@H](O)[C@@H](CO)O2)c(=O)n1 | N |
| CCCC(C)C(=O)O (stereo not drawn) | N |
| CC(=O)OC/C=C(\C)CCC=C(C)C | N |
| CCCCCCCCOc1ccc(C(=O)O)cc1 | N |
| Cc1cc(C)c(C)cc1C | N |
| CCCCC(CC)COC(=O)CC#N (stereo not drawn) | N |
| C=CCOCC(O)CCl (stereo not drawn) | N |
| CCC1(c2ccccc2)C(=O)NCNC1=O | N |
| CN(c1nccc(=O)[nH]1)C1CCN(c2nc3ccccc3n2Cc2ccc(F)cc2)CC1 | N |
| COC(=O)c1ccc(C)cc1 | N |
| Cc1cc2nc3ccc(=[N+](C)C)cc-3sc2cc1N | Y |
| O=Cc1cccc([N+](=O)[O-])c1 | N |
| CC(=O)c1ccc(C(C)=O)cc1 | N |
| CC(C)(Oc1ccc(Cl)cc1)C(=O)OCCCOC(=O)C(C)(C)Oc1ccc(Cl)cc1 | N |
| Clc1ccc2c(c1)Nc1ccccc1S2 | N |
| CC(=O)OC(C(=O)c1ccccc1)c1ccccc1 (stereo not drawn) | N |
